Source: patent US20200368361A1

tgt: T1, full length human MSR1 with a C-terminal Myc tag on HEK293.Myc.hMSR1 cells (human, UniProt P21757 1-451)
T1 construct: whole, on cells
T1 sequence (looked up): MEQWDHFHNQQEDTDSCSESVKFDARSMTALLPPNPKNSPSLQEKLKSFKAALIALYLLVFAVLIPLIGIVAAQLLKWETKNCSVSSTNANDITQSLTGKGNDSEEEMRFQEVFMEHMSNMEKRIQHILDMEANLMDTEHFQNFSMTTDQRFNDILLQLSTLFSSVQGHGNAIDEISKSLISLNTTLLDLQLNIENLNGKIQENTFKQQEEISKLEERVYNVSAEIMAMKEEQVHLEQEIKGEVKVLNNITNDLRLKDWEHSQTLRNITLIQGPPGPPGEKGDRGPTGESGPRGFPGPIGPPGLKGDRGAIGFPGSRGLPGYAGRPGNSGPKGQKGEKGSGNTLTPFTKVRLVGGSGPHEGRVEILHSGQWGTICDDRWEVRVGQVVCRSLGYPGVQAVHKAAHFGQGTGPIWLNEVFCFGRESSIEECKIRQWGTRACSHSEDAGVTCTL
method: ECL cell binding, HEK293.Myc.hMSR1
valueKind: binding signal ratio to isotype control (11 nM) (fold)
Return type: number; implicit unit fold.

H1H27754P-N297Q (antibody, human IgG1, V domains shown, human IgG1 Fc with N297Q) VH: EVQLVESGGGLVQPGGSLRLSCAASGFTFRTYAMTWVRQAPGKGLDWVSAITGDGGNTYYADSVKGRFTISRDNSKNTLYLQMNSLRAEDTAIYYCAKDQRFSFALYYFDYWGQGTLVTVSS VL: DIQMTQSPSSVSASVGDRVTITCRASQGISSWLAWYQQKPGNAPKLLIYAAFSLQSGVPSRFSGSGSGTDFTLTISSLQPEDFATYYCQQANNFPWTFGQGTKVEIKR    55

INPUT: Consider the binder H1H21234N (antibody, human IgG1, V domains shown, original human IgG1 Fc) VH: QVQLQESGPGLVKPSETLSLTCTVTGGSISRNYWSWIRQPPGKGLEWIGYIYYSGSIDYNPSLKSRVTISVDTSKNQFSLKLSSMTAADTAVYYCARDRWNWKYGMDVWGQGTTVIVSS VL: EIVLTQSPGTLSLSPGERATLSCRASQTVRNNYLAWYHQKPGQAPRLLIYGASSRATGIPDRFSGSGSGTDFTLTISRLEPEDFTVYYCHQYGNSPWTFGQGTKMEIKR and give its measured binding signal ratio to isotype control (11 nM).
OUTPUT: 32

INPUT: Consider the binder H2aM21229N (antibody, mouse IgG2a, V domains shown, mouse IgG2a Fc) VH: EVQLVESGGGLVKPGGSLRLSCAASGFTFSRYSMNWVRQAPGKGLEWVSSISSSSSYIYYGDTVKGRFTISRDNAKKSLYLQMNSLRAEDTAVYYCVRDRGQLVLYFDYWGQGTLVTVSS VL: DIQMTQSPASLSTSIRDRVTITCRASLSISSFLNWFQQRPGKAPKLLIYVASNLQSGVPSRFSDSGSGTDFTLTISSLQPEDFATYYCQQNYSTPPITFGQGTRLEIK and give its measured binding signal ratio to isotype control (11 nM).
OUTPUT: 78
